FYI, the data here is from ChEMBL document CHEMBL1201862.

Tested on: UACC-257
assay.overview: NCI tumour cell line growth inhibition, 48 h
Active and inactive are the calls of the source. Cut-off read from the data, not from the text of the source: active = GI50 up to about 1.1 µM and inactive = higher.
Respond only with the outcome that fits, drawn from active, inactive

Please state the recorded outcome for this compound: Nc1ccc(-c2nc3ccccc3s2)cc1C(F)(F)F inactive

Please state the recorded outcome for this compound: O=C1c2c(ccc3c2CCCC3)CC1Cc1ccc2c(c1)CCCC2 (stereo unspecified) inactive

Please state the recorded outcome for this compound: COc1ccc2c(NCCCCCCNc3c4ccccc4nc4cc(OC)ccc34)c3ccccc3nc2c1 active

Please state the recorded outcome for this compound: c1csc(-c2cc(-c3ccsc3)c(-c3ccsc3)s2)c1 inactive

Please state the recorded outcome for this compound: Cc1ccc(C)c2c1n1c(=O)n(C)c(=O)n21 inactive

Please state the recorded outcome for this compound: N#CC1(C#N)C(C#N)(C#N)C12CCCCCC2 inactive

Please state the recorded outcome for this compound: Cc1ccc(/N=N/N(C)C(=O)C(C)N)cc1 (stereo unspecified) inactive

Please state the recorded outcome for this compound: O=C(O)c1ccc(C(c2c(O)oc3ccccc3c2=O)c2c(O)oc3ccccc3c2=O)cc1 inactive

Please state the recorded outcome for this compound: COc1cccc2c1C(=O)c1c(O)c3c(c(O)c1C2=O)C[C@@](O)(C(C)=O)CC3S(=O)(=O)O (stereo partly specified) inactive

Please state the recorded outcome for this compound: COC(=O)c1c(O)ccc2c1c1c(n2Cc2ccccc2Cl)C(=O)c2ccccc2C1=O inactive

Please state the recorded outcome for this compound: CCOC(=O)N1Cc2ccoc2C1 inactive

====

Test system: ACHN
assay.overview: NCI tumour cell line growth inhibition, 48 h
Active and inactive are the calls of the source. Rule as the data show it: active = GI50 up to about 1.1 µM and inactive = higher.
Field: GI50. Provide a value for each of the compounds that follow.

Which GI50 value belongs to N=C(N)N/N=C\c1c(-c2ccccc2)nc2sccn12 ? 16.9 µM (inactive)

Which GI50 value belongs to COC(=O)CCC12CCC(O1)c1ccccc12 (stereo not given) ? > 100 µM (inactive)

Which GI50 value belongs to CC(=O)OC12c3ccccc3-c3ccccc3C1C1C(=O)OC(=O)C12 (stereo not given) ? > 10 µM (inactive)

Which GI50 value belongs to CN1CC=C(c2c(N)nc(N)[nH]c2=O)CC1 ? > 100 µM (inactive)

Which GI50 value belongs to CC(=O)O[C@]1(C(C)=O)CC[C@H]2[C@@H]3C[C@H](C)C4=CC(=O)C=C[C@]4(C)[C@@]3(F)[C@@H](O)C[C@@]21C [FLUOROMETHOLONE ACETATE] ? 56.5 µM (inactive)

Which GI50 value belongs to O=C1Nc2ccccc2SC1=C(C(=O)c1ccccc1)C(=O)c1ccccc1 ? 42.1 µM (inactive)

Which GI50 value belongs to CC(C)C1=CC23CCC4C(C)(C(=O)O)CCCC4(C)C2CC1C1C(=O)N(CCCCCCN2C(=O)C4C5CC6C7(C)CCCC(C)(C(=O)O)C7CCC6(C=C5C(C)C)C4C2=O)C(=O)C13 (stereo not given) ? 10.9 µM (inactive)

Which GI50 value belongs to CCOc1ccc2c(c1)[n+]([O-])c(S(=O)(=O)c1ccc(C)cc1)c(N)[n+]2[O-] ? > 100 µM (inactive)

Which GI50 value belongs to O=[N+]([O-])c1ccccc1S(=O)(=O)c1ccccc1[N+](=O)[O-] ? > 90.8 µM (inactive)

Which GI50 value belongs to N#CC1(C#N)C(C#N)(C#N)C12CCCCCC2 ? 11.1 µM (inactive)
